B1: USP39 (parent)
chain: FVEKNPTIVNFPITNVDLREYLSE

# Variants of: B1
# Assay Method Text: protein stability index of a GFP-peptide fusion (GPS, HEK-293T) (PSI 1-6); higher = more stable;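 also: lentivirally expressed fusions sorted by FACS into six bins by GFP to DsRed ratio, PSI derived from sequencing read proportions per bin multiplied by bin number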
# Test Settings: c terminus: a fixed tail appended
Classes by protein stability index: bin 1 = under 2, bin 2 = from 2 up to 3, bin 3 = 3 and over

D17S; bin 2

Query: Bin this entry: T7P
Response: bin 1

Query: Bin this entry: V2R
Response: bin 3

Query: Bin this entry: V2Q
Response: bin 2
